B1: Azoarcus group I ribozyme (parent)
chain: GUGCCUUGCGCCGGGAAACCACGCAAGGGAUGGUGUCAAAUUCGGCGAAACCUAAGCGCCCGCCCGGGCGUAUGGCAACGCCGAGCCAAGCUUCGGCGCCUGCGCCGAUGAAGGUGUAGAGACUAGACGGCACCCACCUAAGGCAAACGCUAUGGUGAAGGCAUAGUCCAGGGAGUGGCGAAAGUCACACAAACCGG

Variants of: B1
Assay: reverse-splicing fitness (ratio to wild type); higher = more active; in vitro selection; Mg2+ level not given
Entry flag: Met if reverse-splicing fitness reaches 0.01; Not met if it does not.

Recorded results for 3 variants are shown here.
C82U A111G A145U C150A C169A U176C | Not met
C82G A111G A120C A145G C150U U176C | Met
C82U A111G A120U C169A | Not met

Task: Evaluate A111C A145C C169G : reverse-splicing fitness at minimum 0.01?
Output: Met

Task: Evaluate C82G A111G A120C C150U C169G U176C : reverse-splicing fitness at minimum 0.01?
Output: Met

Task: Evaluate C82U A111C A120C A145C C150U C169G U176C : reverse-splicing fitness at minimum 0.01?
Output: Met

Task: Evaluate C82A A120U A145G C169U U176G : reverse-splicing fitness at minimum 0.01?
Output: Not met

Task: Evaluate A111U A120G A145C U176G : reverse-splicing fitness at minimum 0.01?
Output: Not met

Task: Evaluate A120C A145U C150G U176G : reverse-splicing fitness at minimum 0.01?
Output: Met

Task: Evaluate C82G A111C A120U C150A C169G : reverse-splicing fitness at minimum 0.01?
Output: Not met

Task: Evaluate C82A A120U A145C C150A C169U U176G : reverse-splicing fitness at minimum 0.01?
Output: Not met

Task: Evaluate C82A A111G A120U A145C C150G U176G : reverse-splicing fitness at minimum 0.01?
Output: Not met

Task: Evaluate C82A A111C A145U U176A : reverse-splicing fitness at minimum 0.01?
Output: Met

Task: Evaluate C82A A111C A145G C150A C169U : reverse-splicing fitness at minimum 0.01?
Output: Met

Task: Evaluate A111G A120G A145C C150A C169U U176G : reverse-splicing fitness at minimum 0.01?
Output: Not met

Task: Evaluate C82G A111U A120C A145G U176A : reverse-splicing fitness at minimum 0.01?
Output: Met

Task: Evaluate C82A A120G A145G C150U C169A U176C : reverse-splicing fitness at minimum 0.01?
Output: Met

Task: Evaluate C82A A145G C150A C169U U176C : reverse-splicing fitness at minimum 0.01?
Output: Met

Task: Evaluate C82U A111U A120C A145G C169U U176G : reverse-splicing fitness at minimum 0.01?
Output: Not met

Task: Evaluate C82G A111U A120G A145G C150U C169A U176C : reverse-splicing fitness at minimum 0.01?
Output: Met
